# target-system: human PAD4 (Homo sapiens, UniProt Q9UM07)
# Construct: human PAD4 (NM_012387), A2-P663, was PCR amplified; His-SUMO (N, cleaved yes)
# Sequence (Q9UM07 2-663): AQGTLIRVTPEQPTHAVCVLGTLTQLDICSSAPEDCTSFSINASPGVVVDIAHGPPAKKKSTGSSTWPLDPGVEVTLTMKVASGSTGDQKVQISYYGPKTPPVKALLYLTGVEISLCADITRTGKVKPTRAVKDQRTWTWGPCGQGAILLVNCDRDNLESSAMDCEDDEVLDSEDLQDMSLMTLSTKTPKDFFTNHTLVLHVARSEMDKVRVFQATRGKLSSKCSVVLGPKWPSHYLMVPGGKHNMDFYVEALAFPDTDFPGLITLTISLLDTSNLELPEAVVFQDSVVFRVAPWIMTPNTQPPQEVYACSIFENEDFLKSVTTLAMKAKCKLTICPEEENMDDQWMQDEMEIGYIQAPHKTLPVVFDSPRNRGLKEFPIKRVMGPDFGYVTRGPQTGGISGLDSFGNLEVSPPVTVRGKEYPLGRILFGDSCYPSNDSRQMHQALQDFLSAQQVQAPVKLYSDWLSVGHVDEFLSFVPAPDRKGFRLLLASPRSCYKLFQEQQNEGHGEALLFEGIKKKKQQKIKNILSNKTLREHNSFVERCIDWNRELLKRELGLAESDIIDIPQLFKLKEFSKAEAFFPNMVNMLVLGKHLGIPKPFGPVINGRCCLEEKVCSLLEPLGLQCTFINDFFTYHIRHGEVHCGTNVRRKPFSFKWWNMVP
# test-description: In vitro PAD4 BAEE biochemical assay
# experimental-parameters: BAEE substrate 3 mM, 5 nM PAD4, 2 mM calcium chloride; geometric mean of multiple experiments
pIC50: −log10 of the molar value.
quantity-kind: pIC50

(I) COc1cc(C(=O)N2CCC[C@@H](N)C2)cc2nc(-c3cc4ccc5nc4n3CCCCCCCCC(=O)N[C@@H]5C)n(C)c12
(II) COc1cc(C(=O)N2CC[C@@H](OC)[C@@H](N)C2)cc2nc(-c3cc4ccc5nc4n3CC(F)(F)CCCCC(C)(C)C(=O)N[C@@H]5C)n(C)c12
(III) COc1cc(C(=O)N2C[C@H](N)[C@@H]3CC[C@H]2C3)cc2nc(-c3cc4ccc5nc4n3CCCCCc3ccccc3C(=O)N[C@@H]5C)n(C)c12
Asked: Arrange the 3 compounds from largest to smallest pIC50. // list labels; follow requested order
Given back: I, III, II
(I: 7.89, III: 7.49, II: 6.94)

(P) CO[C@@H]1CCN(C(=O)c2cc(F)c3c(c2)nc(-c2cc4ccc5nc4n2CCCCCC[C@H](c2cccc(Cl)n2)C(=O)N[C@@H]5C)n3C2CC2)C[C@@H]1N
(Q) COc1cc(C(=O)N2CCC[C@@H](N)C2)cc2nc(-c3cc4ccc5nc4n3CCCCCc3ccccc3C(=O)N[C@@H]5C)n(C)c12
Asked: Sorting ascending by pIC50, which comes first: P or Q ? Indicate which entry you chose by stating its label.
Given back: P
(P: 7.05, Q: 7.34)

(P) COc1cc(C(=O)N2C[C@H](N)[C@@H]3CC[C@H]2C3)cc2nc(-c3cc4ccc5nc4n3CC(F)(F)CCCOC(C)(C)C(=O)N[C@@H]5C)n(C3CC3)c12
(Q) CO[C@@H]1CCN(C(=O)c2cc(F)c3c(c2)nc(-c2cc4ccc5nc4n2CCCCCc2nccnc2C(=O)N[C@@H]5C)n3C2CC2)C[C@@H]1N
Asked: Sorting ascending by pIC50, which comes first: P or Q ? Indicate which entry you chose by stating its label.
Given back: Q
(Q: 7.11, P: 7.55)

(1) COc1cc(C(=O)N2C[C@H](N)[C@@H]3CC[C@H]2C3)cc2nc(-c3cc4ccc5nc4n3CCCCCC[C@@](F)(c3ccccn3)C(=O)N[C@@H]5C)n(C3CC3)c12 (single isomer, unassigned)
(2) CO[C@@H]1CCN(C(=O)c2ccc3c(c2)nc(-c2cc4ccc5nc4n2CCCCCc2nc(Cl)ccc2C(=O)N[C@@H]5C)n3C2CC2)C[C@@H]1N
Asked: Sorting ascending by pIC50, which comes first: 1 or 2 ? Indicate which entry you chose by stating its label.
Given back: 1

(A) C[C@H]1NC(=O)[C@@H]2C[C@H]2CC(F)(F)CCCn2c(-c3nc4cc(C(=O)N5C[C@H](N)[C@@H]6CC[C@H]5C6)cc(F)c4n3C3CC3)cc3ccc1nc32
(B) C[C@H]1NC(=O)[C@@]2(C)C[C@@H]2CCCCCn2c(-c3nc4cc(C(=O)N[C@H]5CNCC[C@@H]5F)c(F)cc4n3C)cc3ccc1nc32
Asked: For this pair, A and B , which shows a numerically higher pIC50? Indicate which entry you chose by stating its label.
Given back: A
(A: 7.62, B: 7.25)

Source of measurements: patent US11976083B2
